- SYSTEM: DDB1-BPB (Homo sapiens (Human), UniProt Q16531)
- Sequence (Q16531 403-706): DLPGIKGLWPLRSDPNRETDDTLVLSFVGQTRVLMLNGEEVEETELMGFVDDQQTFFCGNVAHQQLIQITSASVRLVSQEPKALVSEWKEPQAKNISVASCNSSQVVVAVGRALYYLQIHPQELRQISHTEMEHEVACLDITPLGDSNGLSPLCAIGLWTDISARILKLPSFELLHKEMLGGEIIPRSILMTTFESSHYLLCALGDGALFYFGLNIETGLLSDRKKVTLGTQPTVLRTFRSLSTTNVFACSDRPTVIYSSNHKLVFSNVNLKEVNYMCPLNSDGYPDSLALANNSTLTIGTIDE
- EXPERIMENT_NOTES: Microscale Thermophoresis (MST) binding to DDB1-BPB
- SETUP_CONDITIONS: labeled DDB1-BPB, 25° C.
pKd: −log10 of the molar value.
Mark Condition met for reported pKd of 4 or greater; mark Condition not met for anything smaller.

Answered examples (5):
{"GIVEN_SMILES": "CN(c1ccc(-c2nc(C(=O)O)cc3c2[nH]c2cc(-c4ccccc4)ccc23)cc1)S(=O)(=O)c1ccccc1", "SYSTEM": "DDB1-BPB (Homo sapiens (Human), UniProt Q16531)", "ASSIGNED_LABEL": "Condition not met"}
{"GIVEN_SMILES": "Cc1ccc2c(c1)[nH]c1c(-c3ccc(N(C)S(=O)(=O)c4ccccc4)cc3)nc(C(=O)O)cc12", "SYSTEM": "DDB1-BPB (Homo sapiens (Human), UniProt Q16531)", "ASSIGNED_LABEL": "Condition not met"}
{"GIVEN_SMILES": "CN(c1ccc(-c2nc(C(=O)O)cc3c2[nH]c2cccc(F)c23)cc1)S(=O)(=O)c1ccccc1", "SYSTEM": "DDB1-BPB (Homo sapiens (Human), UniProt Q16531)", "ASSIGNED_LABEL": "Condition met"}
{"GIVEN_SMILES": "CN(c1ccc(-c2nc(C(=O)O)cc3c2[nH]c2cc(Br)ccc23)cc1)S(=O)(=O)c1ccccc1", "SYSTEM": "DDB1-BPB (Homo sapiens (Human), UniProt Q16531)", "ASSIGNED_LABEL": "Condition met"}
{"GIVEN_SMILES": "O=C(O)c1cc2c([nH]c3ccccc32)c(-c2ccc(SCc3ccccc3)cc2)n1", "SYSTEM": "DDB1-BPB (Homo sapiens (Human), UniProt Q16531)", "ASSIGNED_LABEL": "Condition met"}

For this compound, is measured pKd 4 or higher? CN(c1ccc(-c2nc(C(=O)O)cc3c2[nH]c2cc(F)ccc23)cc1)S(=O)(=O)c1ccccc1
Condition met

For this compound, is measured pKd 4 or higher? COC(=O)c1cc2c([nH]c3cccc(F)c32)c(-c2ccc(N(C)S(=O)(=O)c3ccccc3)cc2)n1
Condition not met

For this compound, is measured pKd 4 or higher? CN(c1ccc(-c2nc(C(=O)O)cc3c2[nH]c2ccc(F)cc23)cc1)S(=O)(=O)c1cccnc1
Condition met

---

- SYSTEM: CUL4A-DDB1-BPB interaction (Homo sapiens (Human), UniProt Q16531)
- EXPERIMENT_NOTES: AlphaLISA in vitro binding assay, CUL4A and DDB1-BPB binding
- SETUP_CONDITIONS: inhibition of CUL4A and DDB1-BPB binding
Exercise: for every item that follows, state its recorded log10(IC50).
Reminder: these figures are log10 of reported IC50, in µM before transformation.

Take a look at these entries with their results.
{"MOLECULE": "CS(=O)(=O)c1ccc(-c2nc(C(=O)O)cc3c2[nH]c2ccc(F)cc23)cc1 [PA71]", "REPORTED": -0.44}
{"MOLECULE": "CCS(=O)(=O)c1ccc(-c2nc(C(=O)O)cc3c2[nH]c2ccccc23)cc1 [PA45]", "REPORTED": -0.03}
{"MOLECULE": "CS(=O)(=O)c1ccc(-c2nc(C(=O)O)cc3c2[nH]c2ccc(O)cc23)cc1 [PA73]", "REPORTED": -0.14}
{"MOLECULE": "O=C(O)c1cc2c([nH]c3ccccc32)c(-c2cccc([N+](=O)[O-])c2)n1 [PA36]", "REPORTED": 0.85}

Give the reported value of log10(IC50) for this record: O=C(O)c1cc2c([nH]c3ccccc32)c(-c2ccc3[nH]ccc3c2)n1 [PA28]
1.54

---

- SYSTEM: CUL4A-DDB1-BPB interaction (Homo sapiens (Human), UniProt Q16531)
- EXPERIMENT_NOTES: AlphaLISA in vitro binding assay, CUL4A and DDB1-BPB binding
- SETUP_CONDITIONS: inhibition of CUL4A and DDB1-BPB binding
Criterion: IC50 strictly under 2000 nM. Met: t. Not met: f.

Answered examples (3):
{"COMPOUND": "O=C(O)c1cc2c([nH]c3ccccc32)c(-c2cccc(F)c2)n1 [PA5]", "SYSTEM": "CUL4A-DDB1-BPB interaction (Homo sapiens (Human), UniProt Q16531)", "ASSIGNED_LABEL": "f"}
{"COMPOUND": "Cc1cc(N(C)S(=O)(=O)c2ccccc2)ccc1-c1nc(C(=O)O)cc2c1[nH]c1cc(F)ccc12 [PA1-12A]", "SYSTEM": "CUL4A-DDB1-BPB interaction (Homo sapiens (Human), UniProt Q16531)", "ASSIGNED_LABEL": "f"}
{"COMPOUND": "O=C(O)c1cc2c([nH]c3ccccc32)c(-c2ccc(NCc3ccc(F)cc3)cc2)n1 [PA68]", "SYSTEM": "CUL4A-DDB1-BPB interaction (Homo sapiens (Human), UniProt Q16531)", "ASSIGNED_LABEL": "f"}

In plain terms, does CN(c1ccc(-c2nc(C(=O)O)cc3c2[nH]c2ccc(F)cc23)cc1)S(=O)(=O)c1ccccc1 [PA93] come in under 2000 nM for IC50?
t

In plain terms, does CN(c1ccc(-c2nc(C(=O)O)cc3c2[nH]c2ccccc23)cc1)S(C)(=O)=O [PA75] come in under 2000 nM for IC50?
t

---

Exercise: for every item that follows, state its recorded log10(IC50).
- SYSTEM: CUL4A-DDB1-BPB interaction (Homo sapiens (Human))
- EXPERIMENT_NOTES: AlphaLISA in vitro binding assay, CUL4A and DDB1-BPB binding
- SETUP_CONDITIONS: inhibition of CUL4A and DDB1-BPB binding
Reminder: these figures are log10 of reported IC50, in nM before transformation.

Take a look at these entries with their results.
{"COMPOUND": "COc1cccc(-c2nc(C(=O)O)cc3c2[nH]c2ccccc23)c1", "log10(IC50)": 3.89}
{"COMPOUND": "Cn1c2ccccc2c2cc(C(=O)O)nc(-c3ccc([N+](=O)[O-])cc3)c21", "log10(IC50)": 4.51}
{"COMPOUND": "CN(c1ccc(-c2nc(C(=O)O)cc3c2[nH]c2cc(C#N)ccc23)cc1)S(=O)(=O)c1ccccc1", "log10(IC50)": 1.93}
{"COMPOUND": "Cc1c(/C(=N\\CC(=O)O)c2ccc3[nH]ncc3c2)[nH]c2ccccc12", "log10(IC50)": 3.58}

Items follow; give log10(IC50) for each.
1. CN(c1ccc(-c2nc(C(=O)O)cc3c2[nH]c2c(F)cccc23)cc1)S(=O)(=O)c1ccccc1
2. CN(c1ccc(-c2nc(C(=O)O)cc3c2[nH]c2cccc(F)c23)cc1)S(=O)(=O)c1ccccc1
3. O=C(O)c1cc2c([nH]c3ccccc32)c(-c2ccc(CO)cc2)n1

3.95
2.58
3.53

Items follow; give log10(IC50) for each.
1. COc1ccc(S(=O)(=O)N(C)c2ccc(-c3nc(C(=O)O)cc4c3[nH]c3ccc(F)cc34)cc2)cc1
2. O=C(O)c1cc2c([nH]c3ccccc32)c(-c2ccc(NS(=O)(=O)c3ccccc3)cc2)n1
3. COc1ccc2[nH]c3c(-c4ccc(S(C)(=O)=O)cc4)nc(C(=O)O)cc3c2c1
4. N#Cc1cccc(-c2nc(C(=O)O)cc3c2[nH]c2ccccc23)c1

1. 2.95
2. 3.18
3. 3.26
4. 3.38

Items follow; give log10(IC50) for each.
1. Cc1cc(F)cc2[nH]c3c(-c4ccc(N(C)S(=O)(=O)c5ccccc5)cc4)nc(C(=O)O)cc3c12
2. CN(c1ccc(-c2nc(C(=O)O)cc3c2[nH]c2cc(F)ccc23)cc1)S(=O)(=O)c1ccccc1
3. CN(c1ccc(-c2nc(C(=O)O)cc3c2[nH]c2ccc(F)cc23)cc1)S(=O)(=O)c1cccnc1
4. O=C(O)c1cc2c([nH]c3ccccc32)c(-c2cccc(Cl)c2)n1
5. CN(c1ccc(-c2nc(C(=O)O)cc3c2[nH]c2cc(F)ccc23)cc1)S(=O)(=O)c1ccc(C#N)cc1 [PA1-13A-2]
6. CS(=O)(=O)c1ccc(-c2nc(C(=O)O)cc3c2[nH]c2ccccc23)cc1
7. O=[N+]([O-])c1ccc(-c2nc(-c3nn[nH]n3)cc3c2[nH]c2ccccc23)cc1

[2.14, 2.72, 2.67, 3.60, 3.40, 3.03, 4.11]

Items follow; give log10(IC50) for each.
1. CN(c1ccc(-c2nc(C(=O)O)cc3c2[nH]c2ccc(F)c(F)c23)cc1)S(=O)(=O)c1ccccc1
2. CN1CCN(S(=O)(=O)N(C)c2ccc(-c3nc(C(=O)O)cc4c3[nH]c3cc(F)ccc34)cc2)CC1 [PA1-13A-3]

[2.23, 2.65]

Items follow; give log10(IC50) for each.
1. O=C(O)c1cc2c([nH]c3ccccc32)c(-c2ncc[nH]2)n1
2. COc1ccc(-c2ccc(-c3nc(C(=O)O)cc4c3[nH]c3ccccc34)cc2)cc1
3. CN(c1ccc(-c2nc(C(=O)O)cc3c2[nH]c2cc(-c4ccccc4)ccc23)cc1)S(=O)(=O)c1ccccc1
4. CS(=O)(=O)c1ccc(-c2ccc(-c3nc(C(=O)O)cc4c3[nH]c3ccccc34)cc2)cc1

1: 4.36; 2: 4.24; 3: 4.24; 4: 3.59

Items follow; give log10(IC50) for each.
1. O=C(O)c1cc2c([nH]c3ccccc32)c(-c2ccc(F)c(F)c2)n1
2. N#Cc1ccc(-c2nc(C(=O)O)cc3c2[nH]c2ccccc23)cc1
3. CN(C)S(=O)(=O)c1ccc(-c2nc(C(=O)O)cc3c2[nH]c2ccccc23)cc1
4. COC(=O)c1ccc(-c2nc(C(=O)O)cc3c2[nH]c2ccccc23)cc1
5. O=C(O)c1cc2c([nH]c3ccccc32)c(-c2cccc(O)c2)n1
6. Cc1cccc(-c2nc(C(=O)O)cc3c2[nH]c2ccccc23)c1
7. O=C(O)c1cc2c([nH]c3ccccc32)c(-c2ccc(S(=O)(=O)Cc3ccccc3)cc2)n1

1: 3.55; 2: 3.30; 3: 2.91; 4: 3.32; 5: 4.17; 6: 4.01; 7: 3.09

Items follow; give log10(IC50) for each.
1. CS(=O)(=O)Nc1ccc(-c2nc(C(=O)O)cc3c2[nH]c2ccccc23)cc1
2. Cc1ccc2c(c1)[nH]c1c(-c3ccc(N(C)S(=O)(=O)c4ccccc4)cc3)nc(C(=O)O)cc12
3. O=C(O)c1cc2c([nH]c3ccccc32)c(-c2ccc(C#Cc3ccccc3)cc2)n1

3.10
3.89
4.56
